Origin of the recorded values: patent US20250296971A1

IC50 values for the molecules below.
# TESTED TARGET: GIPR (CHO-K1-hGIPR cells) (Homo sapiens)
# Construct: host or cells: CHO-K1
# Sequence (P48546 22-466): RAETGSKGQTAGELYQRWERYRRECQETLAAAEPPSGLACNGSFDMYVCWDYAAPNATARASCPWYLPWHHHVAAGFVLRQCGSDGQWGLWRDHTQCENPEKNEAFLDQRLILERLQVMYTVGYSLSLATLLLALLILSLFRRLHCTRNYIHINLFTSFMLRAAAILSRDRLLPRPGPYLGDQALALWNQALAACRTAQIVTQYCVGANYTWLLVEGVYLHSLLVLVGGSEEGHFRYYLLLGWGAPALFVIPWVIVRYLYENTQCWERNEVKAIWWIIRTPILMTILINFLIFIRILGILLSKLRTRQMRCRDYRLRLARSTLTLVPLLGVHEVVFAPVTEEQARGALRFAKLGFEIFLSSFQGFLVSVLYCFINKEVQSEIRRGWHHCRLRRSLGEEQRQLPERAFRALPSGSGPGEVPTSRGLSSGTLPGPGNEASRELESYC
# PROCEDURE SUMMARY: FACS binding assay
# EXPERIMENTAL PARAMETERS: competition with 20 nM GIP-057, 4° C. for 1 hour, read-out: pIC50 Category (converted)
*1 amine or outer side, *2 acyl side, *3 side chain or, on linkers, in order; H or OH if unused. Where a SMILES comes first, the peptide text is derived from it. Bridges are numbered along the chain shown (N, C = ends). [ ]: non-standard residue; d: D form. The star is where a group is joined. Trp(5-Cl) = N[C@@H](Cc1c[nH]c2ccc(Cl)cc12)C(=O)O; Pyridine(2,6-diCH2) = c1cc(C[*:1])nc(C[*:2])c1; Phe(2-Cl) = N[C@@H](Cc1ccccc1Cl)C(=O)O; 1Nal = N[C@@H](Cc1cccc2ccccc12)C(=O)O; mXylylene = c1cc(C[*:1])cc(C[*:2])c1; Hyp = O=C(O)[C@@H]1C[C@@H](O)CN1; Pip = O=C(O)[C@@H]1CCCCN1; Thp = NC1(C(=O)O)CCOCC1; Aib = CC(C)(N)C(=O)O; Bn = c1ccc(C*)cc1

Solved cases below.
CC[C@H](C)[C@@H]1NC(=O)[C@H](CC(C)C)NC(=O)C2(CCOCC2)NC(=O)[C@@H](NC(=O)[C@@H](CC(C)C)NC(=O)[C@H](CCC(=O)O)NC(=O)[C@@H]2C[C@@H](O)CN2C(=O)[C@H](Cc2c[nH]c3ccc(Cl)cc23)NC(=O)[C@H](Cc2ccccc2Cl)NC(=O)[C@H](CC(=O)O)NC(C)=O)CSCc2cccc(n2)CSC[C@@H](C(N)=O)NC1=O [GIP-262] (Ac-D[Phe(2-Cl)][Trp(5-Cl)][Hyp]E[dL]C[Thp]LIC-NH2; linker 7-11 via Pyridine(2,6-diCH2)); 10 to 79.4 nM
CC[C@H](C)[C@H](NC(=O)[C@H](CC(C)C)NC(=O)[C@H](C)NC(=O)[C@H](CSCc1ccccc1)NC(=O)[C@H](CC(C)C)NC(=O)[C@H](CCC(=O)O)NC(=O)[C@@H]1CCCN1C(=O)[C@H](Cc1c[nH]c2ccccc12)NC(=O)[C@H](Cc1c[nH]c2ccccc12)NC(=O)[C@H](CC(=O)O)NC(=O)[C@H](Cc1ccc(O)cc1)NC(=O)[C@@H](N)CCSC)C(=O)N[C@@H](CSC)C(N)=O [GIP-368] (H-MYDWWPELC(Bn)ALIC(Me)-NH2); 100 to 794 nM

Now turn to the next molecule.
-- ask For CC[C@H](C)[C@@H]1NC(=O)[C@H](CC(C)C)NC(=O)C(C)(C)NC(=O)[C@@H](NC(=O)[C@H](CC(C)C)NC(=O)[C@H](CCC(=O)O)NC(=O)[C@@H]2CCCCN2C(=O)[C@H](Cc2cccc3ccccc23)NC(=O)[C@H](Cc2c[nH]c3ccccc23)NC(=O)[C@H](CC(=O)O)NC(C)=O)CSCc2cccc(c2)CSC[C@@H](C(N)=O)NC1=O [GIP-253] (Ac-DW[1Nal][Pip]ELC[Aib]LIC-NH2; linker 7-11 via mXylylene) , what is its reported IC50?
-- reply 10 to 79.4 nM
